Target: hD3Rs (Homo sapiens)
Sequence (P35462 whole entry): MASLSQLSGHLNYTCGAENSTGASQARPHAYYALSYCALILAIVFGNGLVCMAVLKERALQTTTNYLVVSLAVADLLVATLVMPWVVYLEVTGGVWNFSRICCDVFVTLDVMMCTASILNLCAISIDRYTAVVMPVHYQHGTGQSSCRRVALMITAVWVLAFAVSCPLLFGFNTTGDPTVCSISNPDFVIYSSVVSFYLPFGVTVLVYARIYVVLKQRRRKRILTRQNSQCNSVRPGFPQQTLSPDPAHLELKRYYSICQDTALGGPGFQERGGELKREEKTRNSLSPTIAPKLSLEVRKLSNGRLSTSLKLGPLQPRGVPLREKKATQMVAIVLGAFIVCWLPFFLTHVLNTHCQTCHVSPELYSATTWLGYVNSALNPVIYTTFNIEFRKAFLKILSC
measured endpoint: Ki (nM)
Please state the figure in nM; there is no need to write the unit.

Bench note, hD3Rs (Homo sapiens): entry COc1ccccc1N1CCN(CCCCNC(=O)c2ccc3cc(OCCCN4CCCCC4)ccc3c2)CC1 [ST-2223] , its Ki = 2

----------
Molecular target: UniProtKB Q9Y5N1
Sequence (Q9Y5N1 whole entry): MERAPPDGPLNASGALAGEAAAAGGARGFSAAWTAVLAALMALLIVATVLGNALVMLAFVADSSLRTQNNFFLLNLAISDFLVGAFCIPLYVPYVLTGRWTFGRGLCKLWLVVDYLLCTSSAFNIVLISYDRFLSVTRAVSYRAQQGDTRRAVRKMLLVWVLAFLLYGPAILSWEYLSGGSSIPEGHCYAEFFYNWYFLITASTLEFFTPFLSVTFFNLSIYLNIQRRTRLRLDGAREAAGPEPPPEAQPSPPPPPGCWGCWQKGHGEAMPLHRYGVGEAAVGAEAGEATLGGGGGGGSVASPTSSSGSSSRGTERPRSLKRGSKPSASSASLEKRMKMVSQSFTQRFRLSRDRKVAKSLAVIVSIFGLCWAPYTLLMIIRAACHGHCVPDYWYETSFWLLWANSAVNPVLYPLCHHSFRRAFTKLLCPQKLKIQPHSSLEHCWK
measured endpoint: Ki (nM)
Please state the figure in nM; there is no need to write the unit.

// Ki value for "COc1ccccc1N1CCN(CCCCNC(=O)c2ccc3cc(OCCCN4CCCCC4)ccc3c2)CC1" : 4.8

----------
Target: hD2SRs (Homo sapiens)
Sequence (P14416 1-414 isoform P14416-2): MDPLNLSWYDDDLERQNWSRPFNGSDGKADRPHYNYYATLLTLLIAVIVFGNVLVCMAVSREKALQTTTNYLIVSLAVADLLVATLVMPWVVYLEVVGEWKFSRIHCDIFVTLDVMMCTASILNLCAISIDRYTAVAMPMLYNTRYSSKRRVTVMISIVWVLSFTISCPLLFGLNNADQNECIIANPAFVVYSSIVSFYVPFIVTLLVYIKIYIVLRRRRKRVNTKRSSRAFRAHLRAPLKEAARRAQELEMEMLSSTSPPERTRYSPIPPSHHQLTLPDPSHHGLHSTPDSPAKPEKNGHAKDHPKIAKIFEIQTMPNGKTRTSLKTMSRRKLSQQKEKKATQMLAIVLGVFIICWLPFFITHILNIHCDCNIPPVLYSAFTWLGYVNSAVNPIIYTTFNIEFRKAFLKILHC
measured endpoint: Ki (nM)
Please state the figure in nM; there is no need to write the unit.

Bench note, hD2SRs (Homo sapiens): entry "COc1ccccc1N1CCN(CCCCNC(=O)c2ccc3cc(OCCCN4CCCCC4)ccc3c2)CC1" , its Ki = 19.8
